Biological target: cdk1/cyclin B (CDC2) (Homo sapiens, UniProt P06493)
Sequence (P06493 whole entry, species assumed): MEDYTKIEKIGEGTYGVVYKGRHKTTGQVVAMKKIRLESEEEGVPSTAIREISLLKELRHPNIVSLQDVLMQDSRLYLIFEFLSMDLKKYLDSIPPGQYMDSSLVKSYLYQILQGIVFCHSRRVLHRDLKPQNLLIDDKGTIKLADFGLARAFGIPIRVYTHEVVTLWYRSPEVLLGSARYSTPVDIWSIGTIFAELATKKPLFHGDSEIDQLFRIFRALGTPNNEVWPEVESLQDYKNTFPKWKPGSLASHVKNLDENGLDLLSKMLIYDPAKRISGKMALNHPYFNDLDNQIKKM
Sequence (P14635 whole entry partner, species assumed): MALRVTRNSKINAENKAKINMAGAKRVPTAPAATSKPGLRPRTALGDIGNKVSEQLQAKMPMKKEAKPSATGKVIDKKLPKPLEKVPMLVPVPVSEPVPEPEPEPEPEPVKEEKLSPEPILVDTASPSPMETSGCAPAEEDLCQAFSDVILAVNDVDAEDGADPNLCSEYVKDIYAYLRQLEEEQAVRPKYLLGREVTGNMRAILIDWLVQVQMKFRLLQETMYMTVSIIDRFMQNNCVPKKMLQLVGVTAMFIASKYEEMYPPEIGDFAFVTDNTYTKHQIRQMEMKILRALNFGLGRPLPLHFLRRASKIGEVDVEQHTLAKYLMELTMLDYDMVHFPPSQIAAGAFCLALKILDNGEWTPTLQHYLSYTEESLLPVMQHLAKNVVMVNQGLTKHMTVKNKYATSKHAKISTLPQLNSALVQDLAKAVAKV
Assay: CDK inhibition assay, cdk1/cyclin B (CDC2) kinase, histone phosphorylation
Assay type: biochemical
endpointName: IC50 (nM)
Form entry: value (nM) — number only.

Check out these entries, answers already filled in.
In [3]: df
Out[3]:
                                   compound  unitstext  numericvalue
0    Cc1n[nH]c2c(Nc3cccc(Cl)c3)nc(NCCO)nc12         nM            40
1  CC[C@H](CO)Nc1nc(Nc2ccc(Cl)c(N)c2)c2[nH]nc(C(C)C)c2n1         nM             4
2  CC(C)c1n[nH]c2c(Nc3cccc(Cl)c3)nc(NC3CCCCC3N)nc12 (stereo not drawn)         nM             4
3  CC(C)c1n[nH]c2c(Nc3ccc(Cl)c(C(=O)O)c3)nc(N[C@@H](CO)C(C)C)nc12         nM             1
4  CC(C)c1n[nH]c2c(NCc3cc(O)c(Cl)cc3O)nc(N[C@@H](CO)C(C)C)nc12         nM           0.8
5  CC[C@H](CO)Nc1nc(Nc2ccc(Cl)c(C(=O)O)c2)c2[nH]nc(C(C)C)c2n1         nM             1
6  CC(C)c1n[nH]c2c(Nc3cccc(Cl)c3)nc(NCCCN)nc12         nM            20
7  CC(C)c1n[nH]c2c(Nc3ccc(O)c(C(=O)O)c3)nc(N[C@@H](CO)C(C)C)nc12         nM           0.4

Lookup: IC50 for COc1ccc(CNc2nc(N[C@@H](CO)C(C)C)nc3c(C(C)C)n[nH]c23)c(O)c1O ?
Found: 0.4

----------
Biological target: IκB-α kinase
Assay: IκB-α kinase inhibition, in vitro kinase assay
The following compounds are shown together with reported IC50 values.
Form entry: enter the amount, then its unit.

Check out these entries, answers already filled in.
>>> print(df.to_string())
                                   compound   studytarget  result
0  CC[C@H](CO)Nc1nc(N(C)Cc2ccc(O)c(O)c2)c2[nH]nc(C(C)C)c2n1  IκB-α kinase  510 nM
1  COc1cc(O)c(CNc2nc(NCCO)nc3c(C)n[nH]c23)c(O)c1  IκB-α kinase    9 nM
2  CC[C@H](CO)Nc1nc(NCc2c(N)cccc2Cl)c2[nH]nc(C(C)C)c2n1  IκB-α kinase  3.5 nM
3  CC(C)c1n[nH]c2c(Nc3cc(N)cc(Cl)c3)nc(N[C@@H](CO)C(C)C)nc12  IκB-α kinase   15 nM
4  CC(C)c1n[nH]c2c(Nc3ccc(N)c(Cl)c3)nc(N[C@@H](CO)C(C)C)nc12  IκB-α kinase    3 nM
5  Cc1n[nH]c2c(NC(CO)c3ccccc3)nc(NCCO)nc12 (racemic)  IκB-α kinase  400 nM
6    Cc1n[nH]c2c(Nc3ccc(Br)cc3)nc(NCCO)nc12  IκB-α kinase   20 nM
7  CC(C)c1n[nH]c2c(NCc3cc(O)c(Cl)cc3O)nc(N[C@@H](CO)C(C)C)nc12  IκB-α kinase    1 nM
8  CC(C)c1n[nH]c2c(Nc3cccc(Cl)c3)nc(NCCN)nc12  IκB-α kinase  250 nM
9  CC(C)c1n[nH]c2c(NCc3ccc(Cl)c(N)c3N)nc(N[C@@H](CO)C(C)C)nc12  IκB-α kinase   40 nM

Field: next compound
Lookup: IC50 for CC(=O)c1cccc(CNc2nc(NCCO)nc3c(C)n[nH]c23)c1 ?
Found: 90 nM

----------
Target: cdk1/cyclin B (CDC2) (Homo sapiens)
Assay: CDK inhibition assay, cdk1/cyclin B (CDC2) kinase, histone phosphorylation
Format: biochemical
endpointName: IC50 (nM)
Form entry: value (nM) — number only.

Check out these entries, answers already filled in.
>>> df
                                        mol                          studytarget  numericvalue
0  COc1ccc(CNc2nc(NCCO)nc3c(C)n[nH]c23)c(O)c1O  cdk1/cyclin B (CDC2) (Homo sapiens)             8
1  CC(=O)c1ccccc1CNc1nc(NCCO)nc2c(C)n[nH]c12  cdk1/cyclin B (CDC2) (Homo sapiens)            10

Lookup: IC50 for CC[C@H](CO)Nc1nc(NCc2ccccc2)c2[nH]nc(C(C)C)c2n1 ?
Found: 10

----------
Target: cdk1/cyclin B (CDC2) (Homo sapiens, UniProt P06493)
Assay: CDK inhibition assay, cdk1/cyclin B (CDC2) kinase, histone phosphorylation
Format: biochemical
pIC50: −log10 of the molar value.
Please note: True applies when pIC50 is 8 or greater, and False applies otherwise.

In [3]: df
Out[3]:
                                   compound                               studytarget  classification
0  CC(C)c1n[nH]c2c(Nc3cccc(Cl)c3)nc(NC3CCC(N)CC3)nc12 (stereo not shown)  cdk1/cyclin B (CDC2) (Homo sapiens, UniProt P06493)            True
1      Cc1n[nH]c2c(NCc3ccccc3O)nc(NCCO)nc12  cdk1/cyclin B (CDC2) (Homo sapiens, UniProt P06493)           False
2  CC(C)c1n[nH]c2c(NC(CO)c3ccccc3)nc(N[C@@H](CO)C(C)C)nc12 (mixture of isomers)  cdk1/cyclin B (CDC2) (Homo sapiens, UniProt P06493)           False
3  COc1cc(O)c(CNc2nc(NCCO)nc3c(C)n[nH]c23)c(O)c1  cdk1/cyclin B (CDC2) (Homo sapiens, UniProt P06493)            True
4  CC[C@H](CO)Nc1nc(NCc2ccc(O)c(O)c2)c2[nH]nc(C(C)C)c2n1  cdk1/cyclin B (CDC2) (Homo sapiens, UniProt P06493)           False
5  Cc1n[nH]c2c(NCc3ccc(O)c(O)c3)nc(NCCO)nc12  cdk1/cyclin B (CDC2) (Homo sapiens, UniProt P06493)           False
6   CC(C)c1n[nH]c2c(NCc3ccccc3)nc(NCCO)nc12  cdk1/cyclin B (CDC2) (Homo sapiens, UniProt P06493)           False
7  Cc1n[nH]c2c(Nc3ccccc3)nc(NCCO)nc12 [2-hydroxyethylamino; anilino; methyl]  cdk1/cyclin B (CDC2) (Homo sapiens, UniProt P06493)           False

Lookup: Reported pIC50 reaches at least 8 for CC(C)c1n[nH]c2c(Nc3ccc(N)c(Cl)c3)nc(N[C@@H](CO)C(C)C)nc12 ?
Found: True

Lookup: Reported pIC50 reaches at least 8 for CC(C)c1n[nH]c2c(NCc3ccc(O)c(O)c3)nc(N[C@@H](CO)C(C)C)nc12 ?
Found: False

Lookup: Reported pIC50 reaches at least 8 for CC(=O)Oc1cccc(CNc2nc(NCCO)nc3c(C)n[nH]c23)c1 ?
Found: False

Lookup: Reported pIC50 reaches at least 8 for CC(C)c1n[nH]c2c(NCc3ccc(Cl)c(N)c3)nc(N[C@@H](CO)C(C)C)nc12 ?
Found: True

Lookup: Reported pIC50 reaches at least 8 for CC[C@H](CO)Nc1nc(Nc2ccc(C(=O)O)c(Cl)c2)c2[nH]nc(C(C)C)c2n1 ?
Found: True

Lookup: Reported pIC50 reaches at least 8 for CC(C)c1n[nH]c2c(NCc3cccc(O)c3)nc(N[C@@H](CO)C(C)C)nc12 ?
Found: True

----------
Tested on: CEM (human lymphoblastoid leukemia)
Assay: In vitro cytotoxic activity, Calcein AM
Assay type: cell-based
Conditions: Homo sapiens, 72 h, three days
Description: We have been using the following cell lines: HELA (human cervical carcinoma), MCF7 (human breast adenocarcinoma), NIH 3T3 (mouse fibroblasts), HOS (human osteogenic sarcoma), HL 60 (human promyelocytic leukemia), G 361 (human malignant melanoma), K562 (human erythroleukemia), CEM (human lymphoblastoid leukemia). […] Fluorescence of viable cells was quantified employing Fluoroskan Ascent (Microsystems).
The following compounds are shown together with reported GI50 values.
Form entry: value (µM) — number only.

In [3]: df
Out[3]:
                                        mol  numericvalue
0  CC[C@H](CO)Nc1nc(Nc2ccc(Cl)c(C(=O)O)c2)c2[nH]nc(C(C)C)c2n1           4.5
1  COc1cccc(CNc2nc(NCCO)nc3c(C)n[nH]c23)c1O           3.5
2  CC[C@H](CO)Nc1nc(NCc2ccc(Cl)c(N)c2)c2[nH]nc(C(C)C)c2n1          11.4
3  CC(C)c1n[nH]c2c(Nc3ccccc3)nc(N[C@@H](CO)C(C)C)nc12           2.5
4  CC(=O)c1cccc(CNc2nc(NCCO)nc3c(C)n[nH]c23)c1          13.5
5  CC(C)c1n[nH]c2c(Nc3ccc(O)c(C(=O)O)c3)nc(N[C@@H](CO)C(C)C)nc12           2.7

Field: next compound
Lookup: Give GI50 (CEM (human lymphoblastoid leukemia)) of the following compound: CC(C)c1n[nH]c2c(NCc3ccccc3)nc(NCCN)nc12
Found: 26
